# EXPERIMENTAL TARGET: HDAC11 (Homo sapiens)
# Sequence (Q96DB2 1-347): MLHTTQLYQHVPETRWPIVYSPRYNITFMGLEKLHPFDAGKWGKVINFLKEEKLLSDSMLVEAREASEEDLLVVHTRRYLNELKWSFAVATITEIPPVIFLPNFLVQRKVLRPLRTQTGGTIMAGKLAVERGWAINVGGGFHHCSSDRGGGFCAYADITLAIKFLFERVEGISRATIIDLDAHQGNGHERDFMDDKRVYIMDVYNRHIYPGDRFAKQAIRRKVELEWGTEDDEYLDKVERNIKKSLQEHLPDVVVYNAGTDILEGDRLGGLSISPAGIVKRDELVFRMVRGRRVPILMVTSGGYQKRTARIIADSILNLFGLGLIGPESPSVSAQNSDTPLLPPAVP
# ASSAY TEXT: Recombinant HDAC isoform biochemical assay
EXPERIMENTAL ENDPOINT: IC50

stdin: Read the entry CC(=O)Nc1ccc(C(=O)Nc2ccccc2N)cc1 [CI-994] and write its reported IC50.
stdout: > 30 µM
